Provenance of the data: the supplement of paper PMC9170038

Test system: MS2 coat protein
experimentNotes: apparent KD of MS2 coat protein; designed switch direction (-1 OFF switch, 1 ON switch): -1; higher = weaker reporter binding
testConditions: input ligand: FMN 200 uM
assayReadout: apparent KD of MS2 coat protein (nM)
State just the number; it will be interpreted in nM.

Query :: Identify the measured apparent KD of MS2 coat protein of GCCGGGCGAGGAUAUACAUGGCGGGCGAAAGCCCGCGAUCUACAUGAGGAUCACCCAUGUAGAAGGCGCCCGGC [2nd Free energy optimized design] (Eterna round: R97, puzzle: Exclusion 2) for MS2 coat protein.
Result :: 567

Query :: Then this sequence: AGAUCACAUGAGGAUCACCCAUGUGAGGAUAUAGACUGAAGAGCUUCGGCUCUUCAGUCUAGAAGGCACUAUGA [EX1 #45] (Eterna round: R97, puzzle: Exclusion 1)
Result :: 28.9

Query :: Then this sequence: ACAUGUGUUGUAGGAUAUAGGAUACAUGAGGAUCACCCAUGUGGAUUCAUGUCAAAGGAAACGUCCUAGAAGGACGACAACAUG [Ex NG2 #23] (Eterna round: R96, puzzle: Exclusion NG 2)
Result :: 176
